- Test method notes: recombinant barcode read abundance after kanamycin selection (control-corrected) (log10(CPM+1)); higher = more efficient recombination; sequences stand for … in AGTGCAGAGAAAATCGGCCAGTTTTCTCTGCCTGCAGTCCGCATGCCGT…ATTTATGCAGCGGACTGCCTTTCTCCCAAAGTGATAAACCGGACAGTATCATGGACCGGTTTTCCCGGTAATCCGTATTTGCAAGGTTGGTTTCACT; site = the 11-nt target
Value type: recombinant barcode read abundance (log10)

                                      chain  readout_value
0  CATATTAACTGGGTTCTAACCTGTTGCCTGT [CATATTACTAG_LTGcore_AC_RTGcore_AC] (site CATATTACTAG) (LTG core: AC, RTG core: AC)          0.119
1  TAAGAATCTTGGGTTCTAACCTGTTGCCTCG [TAAGAATCTAG_LTGcore_CT_RTGcore_CG] (site TAAGAATCTAG) (LTG core: CT, RTG core: CG)           1.61
2  GTCGCCCGGTGGGTTCTAACCTGTTGCTACC [GTCGCCCCTTA_LTGcore_GG_RTGcore_GG] (site GTCGCCCCTTA) (LTG core: GG, RTG core: GG)          0.458
3  ATGTCCCCTTGGGTTCTAACCTGTTGCTCAC [ATGTCCCCTGA_LTGcore_CT_RTGcore_GT] (site ATGTCCCCTGA) (LTG core: CT, RTG core: GT)         0.0456
4  TCTACCCGGTGGGTTCTAACCTGTTGCTGCC [TCTACCCCTCA_LTGcore_GG_RTGcore_GG] (site TCTACCCCTCA) (LTG core: GG, RTG core: GG)          0.108

###

- Test method notes: recombinant barcode read abundance after kanamycin selection (control-corrected) (log10(CPM+1)); higher = more efficient recombination; sequences stand for … in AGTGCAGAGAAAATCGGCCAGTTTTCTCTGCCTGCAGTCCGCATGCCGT…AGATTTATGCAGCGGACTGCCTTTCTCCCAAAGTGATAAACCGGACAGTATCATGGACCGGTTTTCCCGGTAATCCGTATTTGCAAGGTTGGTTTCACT; site = the 11-nt target
Group membership follows recombinant barcode read abundance (log10) per the scheme A = under 0.09, B = from 0.09 up to 0.4, C = 0.4 and over

>>> print(df.to_string())
                                      chain  class_name
0  GTCCCCTCTTGGGTTCTAACCTGTTGCCT (site GTCGCCTCTAG)           B
1  CTATTGTCTTGGGTTCTAACCTGTTGCGC (site CTATTGTCTAC)           A
2  AATTTGACTTGGGTTCTAACCTGTTGCCT (site AACTTGACTAG)           A
3  ACAGGCGCTTGGGTTCTAACCTGTTGCCT (site ACAGCCGCTAG)           C
4  TTCTAGTCTTGGGTTCTAACCTGTTGCTA (site ACAAGACCTAT)           A
5  ACTGCTCCTTGGGTTCTAACCTGTTGCCT (site ACTGCTCCTAG)           C
6  AAGTGCTCTTGGGTTCTAACCTGTTGCCT (site ACGTGCTCTAG)           B
7  ATCGGATCTTGGGTTCTAACCTGTTGCCG (site ATCGGATCTCG)           C
